Quick list: Concentration per entry.
System: A2780
Test: Concentration required to inhibit A2780 cell growth when compared with control after incubation for 96 hr at 37 C
Assay type: functional, cell-based
Details: Homo sapiens

{"TEST SMILES": "COc1cc2c(cc1OC)C(=O)N1CCC[C@H]1C=N2", "Concentration, µM": 0.064}
{"TEST SMILES": "COc1cc2c(cc1OCCC(=O)N1Cc3ccccc3C1)N=C[C@@H]1CCCN1C2=O", "Concentration, µM": 0.23}
{"TEST SMILES": "COc1cc2c(cc1OCCC(=O)N1CCCCC1)N=C[C@@H]1CCCN1C2=O", "Concentration, µM": 3.2}
{"TEST SMILES": "COc1cc2c(cc1OCCC(=O)N1CCCC1)N=C[C@@H]1CCCN1C2=O", "Concentration, µM": 1.5}
{"TEST SMILES": "COc1cc2c(cc1OCc1ccccc1)N=C[C@@H]1CCCN1C2=O", "Concentration, µM": 0.17}
{"TEST SMILES": "COc1cc2c(cc1OCCC(=O)N1CCc3ccccc31)N=C[C@@H]1CCCN1C2=O", "Concentration, µM": 1.55}

###

Tested on: SK-OV-3
Assay: Concentration required to inhibit SKOV-3 cell growth when compared with control after incubation for 96 hr at 37 C
Assay type: functional, cell-based
Settings: Homo sapiens
PARAMETER MEASURED: log10 of Concentration (log10 of the value in µM)

{"TEST SMILES": "COc1cc2c(cc1OCCC(=O)N1CCc3ccccc31)N=C[C@@H]1CCCN1C2=O", "log10 of Concentration": 0.76}
{"TEST SMILES": "COc1cc2c(cc1OCCC(=O)N1Cc3ccccc3C1)N=C[C@@H]1CCCN1C2=O", "log10 of Concentration": 0.16}
{"TEST SMILES": "COc1cc2c(cc1OCc1ccccc1)N=C[C@@H]1CCCN1C2=O", "log10 of Concentration": -0.34}
{"TEST SMILES": "COc1cc2c(cc1OCCC(=O)N1CCCC1)N=C[C@@H]1CCCN1C2=O", "log10 of Concentration": 0.73}
{"TEST SMILES": "COc1cc2c(cc1OCCC(=O)N1CCCCC1)N=C[C@@H]1CCCN1C2=O", "log10 of Concentration": 1.37}
{"TEST SMILES": "COc1cc2c(cc1OC)C(=O)N1CCC[C@H]1C=N2", "log10 of Concentration": 0.23}

###

Tested on: Nucleic Acid
Experiment: In vitro induced thermal stabilization of duplex DNA melting after incubation with the compound (20 uM) at 37 C for 18 h
Type: functional
Details: Bos taurus
Quick list: ΔTm per entry.
PARAMETER MEASURED: ΔTm (°C)

{"TEST SMILES": "COc1cc2c(cc1OCc1ccccc1)N=C[C@@H]1CCCN1C2=O", "QUANTITATIVE RESULT": 0.4}
{"TEST SMILES": "COc1cc2c(cc1OCCC(=O)N1CCc3ccccc31)N=C[C@@H]1CCCN1C2=O", "QUANTITATIVE RESULT": 1.2}
{"TEST SMILES": "COc1cc2c(cc1OCCC(=O)N1Cc3ccccc3C1)N=C[C@@H]1CCCN1C2=O", "QUANTITATIVE RESULT": 1.3}
{"TEST SMILES": "COc1cc2c(cc1OC)C(=O)N1CCC[C@H]1C=N2", "QUANTITATIVE RESULT": 0.6}
{"TEST SMILES": "COc1cc2c(cc1OCCC(=O)N1CCCCC1)N=C[C@@H]1CCCN1C2=O", "QUANTITATIVE RESULT": 1.2}
{"TEST SMILES": "COc1cc2c(cc1OCCC(=O)N1CCCC1)N=C[C@@H]1CCCN1C2=O", "QUANTITATIVE RESULT": 1.2}
